biological target: phosphorylated active hERK2 enzyme (Homo sapiens (Human), UniProt P28482); conditions: read-out: ERK2 IC50; IMAP-FP assay; 0.5 nM hERK2, 30 μM ATP; 10 point titration, 3 μM starting concentration
Sequence (P28482 whole entry): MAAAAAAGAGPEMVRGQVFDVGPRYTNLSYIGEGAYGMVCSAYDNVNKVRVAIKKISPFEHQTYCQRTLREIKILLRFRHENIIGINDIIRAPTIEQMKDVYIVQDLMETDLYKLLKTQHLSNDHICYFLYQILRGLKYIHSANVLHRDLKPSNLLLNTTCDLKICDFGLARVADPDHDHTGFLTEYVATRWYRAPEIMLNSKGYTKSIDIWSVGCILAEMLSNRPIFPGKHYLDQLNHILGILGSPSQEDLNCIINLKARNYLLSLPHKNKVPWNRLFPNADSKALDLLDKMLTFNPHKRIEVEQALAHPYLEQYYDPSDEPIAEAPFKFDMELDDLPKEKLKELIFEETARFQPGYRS
Each item that follows carries a reported IC50.
Quantity Name: IC50 (nM)

INSERT INTO assay_data (mol, unit, assay_result) VALUES
  ('Cc1cc(-n2ncc3cc(NC(=O)N[C@@H](c4ccc(F)cc4)C(C)(C)O)ncc32)ccn1', 'nM', 1.08),
  ('O=C(NCc1ccccc1)Nc1cc2cnn(-c3ccncc3)c2cn1', 'nM', 2.7),
  ('Cc1cc(-n2ncc3cc(NC(=O)NCc4cccc(-c5ncco5)c4)ncc32)ccn1', 'nM', 13.3),
  ('CCn1ncc2cc(NC(=O)N[C@H](C)c3ccccc3)nc(OC)c21', 'nM', 100),
  ('CN1C[C@H](NC(=O)Nc2cc3cnn(-c4ccc(F)cc4)c3cn2)[C@@H](c2ccccc2)C1', 'nM', 0.579),
  ('Cc1cc(-n2ncc3cc(NC(=O)N[C@H]4CN(C)C5(COC5)[C@@H]4c4ccccc4)ncc32)ccn1', 'nM', 300),
  ('COC[C@@H](NC(=O)Nc1cc2cnn(-c3ccnc(C)c3)c2cn1)c1ccccn1', 'nM', 745),
  ('Cc1cc(-n2ncc3cc(NC(=O)NCc4cnn(-c5ccc(F)cc5)c4)ncc32)ccn1', 'nM', 1630);
